Kindly supply the reported MIC values for the records listed here.
- System: Pseudomonas aeruginosa and MRPA strains
- protocol.summary: microbe, parasite or virus in culture
- Format: cell-based
- assay.conditions: P. aeruginosa 778 (multidrug-resistant); broth micro-dilution, 37 °C, 18–24 h, triplicate
Where no end group is shown, it is not given here.

Tell me its MIC on Pseudomonas aeruginosa and MRPA strains: ILKKLLEGVKSI-NH2 [Hp1404-T1b]
>25 µM

Tell me its MIC on Pseudomonas aeruginosa and MRPA strains: ILKKLWEGVKSI-NH2 [Hp1404-T1a]
>25 µM

Tell me its MIC on Pseudomonas aeruginosa and MRPA strains: ILGKLWEGVKSI-NH2 [Hp1404-T1]
>25 µM
